# test description: Cytotoxicity on parallel plate without virus, ATPlite readout
# Type: cell-based
# assay setup: human, Hep-2 cells (no virus), Hep-2 cells without virus, 5-day incubation
observable: CC50 at 5 days

Some solved cases for reference:
CS(=O)(=O)c1ccc(-c2nnc(NC3N=C(c4ccccc4)c4ccccc4NC3=O)o2)cc1 (stereo not shown)    > 50 µM
O=C1Nc2ccccc2C(c2ccccc2)=NC1Nc1nnc(C2CC2)o1 (stereo not shown)    > 50 µM
O=C1Nc2ccccc2C(c2ccccc2)=NC1Nc1nnc(-c2ccccc2)[nH]1 (stereo not shown)    > 50 µM
COCCOc1cccc(-c2nnc(NC3N=C(c4ccccc4)c4ccccc4NC3=O)o2)c1 (stereo not shown)    > 50 µM
O=C1Nc2ccccc2C(c2ccccc2)=NC1Nc1nnc(-c2cncnc2)o1 (stereo not shown)    > 50 µM
N#Cc1cc(-c2nnc(NC3N=C(c4ccccc4)c4ccccc4NC3=O)o2)ccn1 (stereo not shown)    > 50 µM
O=C1Nc2ccccc2C(c2ccccc2)=NC1Nc1nc(-c2ccccc2)ns1 (stereo not shown)    10 to 50 µM
Cn1cc(-c2nnc(NC3N=C(c4ccccc4)c4ccccc4NC3=O)o2)cn1 (stereo not shown)    > 50 µM
O=C1Nc2ccccc2C(c2ccccc2)=NC1Nc1nnc(-c2nccs2)o1 (stereo not shown)    > 50 µM
O=C1Nc2ccccc2C(c2ccccc2)=NC1Nc1nnc(-c2cc[nH]c(=O)c2)o1 (stereo not shown)    > 50 µM

Prompt: Dear colleague, please send me the reported CC50 at 5 days for O=C1Nc2ccccc2C(c2ccccc2)=NC1Nc1nnc(-c2ccncc2)o1 (stereo not shown) when you can.
Completion: > 50 µM

Prompt: Please give the documented CC50 at 5 days of O=C1Nc2ccccc2C(c2ccccc2)=NC1Nc1nnc(-c2ccc3ccccc3c2)o1 (stereo not shown)
Completion: > 50 µM

Prompt: Write down CC50 at 5 days measured for item O=C1Nc2ccccc2C(c2ccccc2)=N[C@H]1Nc1nnc(-c2ccco2)o1 [Example 10b]
Completion: < 10 µM

Prompt: Report CC50 at 5 days, nothing else, for this molecule: Cc1ccc2oc(NC3N=C(c4ccccc4)c4ccccc4NC3=O)nc2c1 (stereo not shown)
Completion: < 10 µM

Prompt: Provide only the value of recorded CC50 at 5 days for O=C1Nc2ccccc2C(c2ccccc2)=NC1Nc1nnc(-c2cnco2)o1 (stereo not shown)
Completion: > 50 µM
